Biological target: pre-fibrillized Amylin/IAPP fibrils (Homo sapiens, UniProt P10997)
Construct: purchased Bachem Inc
Sequence (P10997 34-70 limits assumed): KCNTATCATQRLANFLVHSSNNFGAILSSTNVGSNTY
Experiment: Thioflavin T fluorometry, disruption/disassembly of pre-formed Amylin/IAPP fibrils
Type: biochemical
Conditions: Amylin/IAPP:test compound wt/wt ratio 1:0.1; 3-day incubation at 37° C.
Reported endpoint: % Inhibition Amylin/IAPP (result ± S.D.), Thioflavin T fluorometry (%)
Numbers only, in %.

Oc1ccc(-c2cnc(-c3ccc(O)c(O)c3)[nH]2)cc1O [Compound 6, 2,4 bis(3,4 dihydroxyphenyl) Imidazole] = 96.3
CN(C(=O)c1ccc(O)c(O)c1)c1ccc(O)c(O)c1 = 95.4
Oc1ccc(-c2cc(-c3ccc(O)c(O)c3)[nH]n2)cc1O [Compound 8, 3,5 bis(3,4 Dihydroxyphenyl)Pyrazole] = 91.2

Here are 3 compounds. What values of % Inhibition Amylin/IAPP (result ± S.D.), Thioflavin T fluorometry were reported for them?
1. O=C(Nc1ccc(O)c(O)c1)c1cccc(O)c1O
2. O=C(Nc1cccc(O)c1O)c1ccc(O)c(O)c1
3. Oc1ccc(C23CC4CC(C2)CC(c2ccc(O)c(O)c2)(C4)C3)cc1O [Compound 9, 1,3 bis(3,4 dihydroxyphenyl) Adamantane]

1: 95.1; 2: 92.6; 3: 88.5

Hi team, please reply with % Inhibition Amylin/IAPP (result ± S.D.), Thioflavin T fluorometry for each item in this list.
1. O=S(=O)(Nc1ccc(O)c(O)c1)c1ccc(O)c(O)c1
2. Oc1ccc(-c2nnc(-c3ccc(O)c(O)c3)[nH]2)cc1O
3. O=C(Nc1cccc(O)c1O)c1cccc(O)c1O

93.7
89.7
94.5
